Data credit: paper PMC12668310

# reported inhibition at 1.25 µM; entries follow
TARGET_OR_TEST_SYSTEM: mUSP18 (Mus musculus)
Construct: (46-368); His-tag (N); made in house
METHOD: High-throughput screening, ISG15ct-RhoMP, single dose 1.25 µM
Format: biochemical, murine
TEST_CONTEXT: mUSP18 %inhibition; carboxylic acid (CA) with coupling reagents DIC/HOBT; read-out: %inh CA + DIC/HOBT
Give just the number in %; leave the unit off.

> print(dat)
                                   molecule  target.or.test.system  experimental.value
1  CC1CN(S(=O)(=O)c2ccc(C(=O)O)cc2)CC(C)O1 (centres unmarked)  mUSP18 (Mus musculus)               -5.95
2                 O=C(O)c1ccc(-c2ccccn2)nc1  mUSP18 (Mus musculus)               -1.59
3  O=C(O)C1CCCCN1S(=O)(=O)c1ccc(Br)s1 (centres unmarked)  mUSP18 (Mus musculus)               -2.17
4                          Cc1ncc(C(=O)O)s1  mUSP18 (Mus musculus)               -14.8
5            Cc1n[nH]c(C)c1Cc1ccc(C(=O)O)o1  mUSP18 (Mus musculus)                2.15

Let's switch to this molecule now.
Field inhibition at 1.25 µM (mUSP18 (Mus musculus)), entry O=C(O)C1COCCN1C(=O)OCc1ccccc1 (centres unmarked) : 3.99

---

TARGET_OR_TEST_SYSTEM: mUSP18 (Mus musculus, UniProt Q9WTV6)
Construct: (46-368); His-tag (N); made in house
Sequence (Q9WTV6 46-368): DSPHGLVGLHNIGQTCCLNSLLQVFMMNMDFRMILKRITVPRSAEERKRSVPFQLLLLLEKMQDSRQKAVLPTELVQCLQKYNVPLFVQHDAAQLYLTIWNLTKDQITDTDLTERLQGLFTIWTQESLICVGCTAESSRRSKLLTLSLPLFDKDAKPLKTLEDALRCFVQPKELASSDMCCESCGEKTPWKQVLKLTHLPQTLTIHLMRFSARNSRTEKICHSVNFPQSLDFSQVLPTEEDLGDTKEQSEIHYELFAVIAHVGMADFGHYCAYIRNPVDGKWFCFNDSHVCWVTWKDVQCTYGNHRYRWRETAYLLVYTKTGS
METHOD: High-throughput screening, ISG15ct-RhoMP, single dose 1.25 µM
Type: biochemical, murine
TEST_CONTEXT: mUSP18 %inhibition; carboxylic acid (CA) building block alone; read-out: %inh CA only
// reported inhibition at 1.25 µM per item
Quote the value and follow it with the unit of measurement.

Would you please look over these solved cases?
> print(dat)
                                   compound  experimental.value
1                      O=C(O)C1(n2cnnn2)CC1               12.1%
2  O=C(O)C1CCCN1C(=O)C1CC1 (centres unmarked)              -4.12%
3              O=C(O)c1cccc(C(=O)N2CCCC2)n1               0.72%
4        CCCN(CCC)S(=O)(=O)c1ccc(C(=O)O)cc1              -0.96%

Measured on mUSP18 (Mus musculus, UniProt Q9WTV6), Cc1sc(-n2cnnn2)c(C(=O)O)c1C has a documented inhibition at 1.25 µM of -5.75%

Entry O=C(O)c1cnc(-c2cccnc2)s1 under mUSP18 (Mus musculus, UniProt Q9WTV6) had inhibition at 1.25 µM of 0.56%

Entry Cc1oc(-c2ccsc2)nc1CC(=O)O , tested on mUSP18 (Mus musculus, UniProt Q9WTV6), has a reported inhibition at 1.25 µM of 2.13%

---

TARGET_OR_TEST_SYSTEM: mUSP18 (Mus musculus)
Construct: (46-368); His-tag (N); made in house
METHOD: High-throughput screening, ISG15ct-RhoMP, single dose 1.25 µM
Type: biochemical, murine
TEST_CONTEXT: mUSP18 %inhibition; carboxylic acid (CA) building block alone; read-out: %inh CA only
REPORTED_ENDPOINT: inhibition at 1.25 µM (%)
Field format: number, assumed %, no unit text.

The cases that follow already have their inhibition at 1.25 µM on record.
> print(dat)
                                   compound  experimental.value
1                  O=C(O)c1cnn(-c2ccncc2)c1                7.48
2     O=C(O)c1ccc(Cn2cc(Cl)c(C(F)(F)F)n2)o1                5.98
3             Cc1ccc(-c2cc(C(=O)O)n[nH]2)s1                4.85
4                O=C(O)c1cccc2c1-c1ccccc1C2                6.69
5  O=C(O)C1CCCN(c2ccc(Cl)nn2)C1 (stereo not drawn)               -7.25
6                  O=C(O)c1cccc(Oc2nccs2)c1               -0.99

The compound listed as O=C(O)CCN(Cc1ccccc1)S(=O)(=O)c1c(Cl)cccc1Cl has a reported inhibition at 1.25 µM of 18.6

For reference, reported inhibition at 1.25 µM for CC(C)(C)OC(=O)N1C[C@@H](O)C[C@@H]1C(=O)O stands at -5.22

The measured inhibition at 1.25 µM associated with O=C(O)Cc1cccc(OCc2cccnc2)c1 reads 0.44

inhibition at 1.25 µM for O=C(O)c1ccc(-c2cnco2)cc1 is 0.58

inhibition at 1.25 µM recorded for this compound, O=C(O)C1CCCN(c2ncccn2)C1 (stereo not drawn) , is -4.05

CC(C)(C)OC(=O)NCC(=O)O has a reported inhibition at 1.25 µM of -6.16

---

TARGET_OR_TEST_SYSTEM: USP32 (Homo sapiens, UniProt Q8NFA0)
Construct: (1-1604); His-tag (N); made in house
Sequence (Q8NFA0 whole entry): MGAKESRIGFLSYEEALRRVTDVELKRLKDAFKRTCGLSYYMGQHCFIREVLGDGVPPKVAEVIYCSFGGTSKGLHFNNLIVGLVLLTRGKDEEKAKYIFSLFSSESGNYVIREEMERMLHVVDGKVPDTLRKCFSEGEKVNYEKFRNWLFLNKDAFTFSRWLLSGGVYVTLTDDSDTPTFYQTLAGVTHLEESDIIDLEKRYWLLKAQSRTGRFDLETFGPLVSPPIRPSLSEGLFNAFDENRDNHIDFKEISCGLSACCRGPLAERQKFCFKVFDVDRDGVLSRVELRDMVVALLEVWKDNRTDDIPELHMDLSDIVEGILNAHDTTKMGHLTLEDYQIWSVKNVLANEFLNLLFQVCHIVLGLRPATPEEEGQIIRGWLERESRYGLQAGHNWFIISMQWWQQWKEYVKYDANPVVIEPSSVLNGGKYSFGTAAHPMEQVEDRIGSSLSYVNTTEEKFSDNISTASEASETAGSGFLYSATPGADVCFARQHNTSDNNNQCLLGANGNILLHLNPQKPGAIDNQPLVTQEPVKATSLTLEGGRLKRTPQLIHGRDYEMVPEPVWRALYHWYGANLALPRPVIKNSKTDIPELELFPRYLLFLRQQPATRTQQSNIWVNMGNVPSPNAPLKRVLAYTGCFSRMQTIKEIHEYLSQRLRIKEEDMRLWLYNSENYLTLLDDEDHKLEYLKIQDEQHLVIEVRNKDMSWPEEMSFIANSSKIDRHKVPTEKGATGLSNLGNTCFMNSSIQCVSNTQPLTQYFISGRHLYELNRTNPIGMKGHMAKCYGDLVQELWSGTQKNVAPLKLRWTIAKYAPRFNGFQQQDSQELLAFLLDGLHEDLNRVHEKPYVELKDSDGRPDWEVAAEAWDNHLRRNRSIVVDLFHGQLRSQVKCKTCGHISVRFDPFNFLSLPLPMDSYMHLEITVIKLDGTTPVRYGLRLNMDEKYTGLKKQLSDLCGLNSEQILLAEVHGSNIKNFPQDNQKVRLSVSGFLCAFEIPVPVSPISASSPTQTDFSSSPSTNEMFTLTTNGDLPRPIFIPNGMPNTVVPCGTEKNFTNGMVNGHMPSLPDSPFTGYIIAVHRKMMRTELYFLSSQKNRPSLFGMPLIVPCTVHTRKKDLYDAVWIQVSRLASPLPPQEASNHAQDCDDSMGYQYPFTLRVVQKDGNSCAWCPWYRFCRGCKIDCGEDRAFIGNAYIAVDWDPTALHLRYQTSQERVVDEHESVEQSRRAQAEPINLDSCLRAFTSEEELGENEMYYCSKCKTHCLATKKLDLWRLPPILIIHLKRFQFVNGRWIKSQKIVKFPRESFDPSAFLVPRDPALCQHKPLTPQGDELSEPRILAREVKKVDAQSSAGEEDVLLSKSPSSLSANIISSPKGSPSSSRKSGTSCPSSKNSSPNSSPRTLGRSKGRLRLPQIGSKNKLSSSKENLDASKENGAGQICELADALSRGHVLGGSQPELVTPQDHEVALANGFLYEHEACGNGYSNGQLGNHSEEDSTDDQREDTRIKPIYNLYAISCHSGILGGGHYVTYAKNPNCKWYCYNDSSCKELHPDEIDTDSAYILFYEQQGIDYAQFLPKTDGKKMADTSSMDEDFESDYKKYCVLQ
METHOD: High-throughput screening, Ub-RhoMP, single dose 1.25 µM
Type: biochemical
TEST_CONTEXT: individual amine building block (plate NCN-5); read-out: BB %inhibition USP32
Measured inhibition at 1.25 µM by item
Give the number; % is assumed, so skip it.

> print(dat)
                                   compound  unit.spec  experimental.value
1                 N#CN1CC[C@H](CN)C1 [BB11]          %                -1.5
2                 N#CN1CCC[C@@H](N)C1 [BB4]          %                 4.7
3  N#CN1CC[C@H](C(=O)Nc2nc3c(s2)CNCC3)C1 [BB10]          %                 1.5
4            N#CN1CCC(n2cc(N)cn2)CC1 [BB16]          %                -6.1

Memo: N#CN1CC[C@H](N)C1 [BB3] , reported inhibition at 1.25 µM: 8.4

get_value(item= N#CN1C[C@H]2C[C@@H](N)C[C@H]2C1 [BB6] , readout=inhibition at 1.25 µM) returns 6

Record summary for N#CN1CC(N)C1 [BB5] : reported inhibition at 1.25 µM = 5.3

inhibition at 1.25 µM in this record for N#CN1CCC[C@H](N)C1 [BB8] : 1.3

Record N#CN1CC[C@@H](NC(=O)c2ccc(CN)cc2)C1 [BB9] , field inhibition at 1.25 µM: 2.8

Input N#CN1C[C@@H](F)[C@@H](N)C1 [BB15] . Output inhibition at 1.25 µM: -3.1

Summary for this compound, N#CN1C[C@@H]2C[C@H]1CN2 [BB12] : inhibition at 1.25 µM is -1.2

Entry under test: N#CN1CC[C@@H](N)C1 [BB1] . Its inhibition at 1.25 µM was 9.5

// sample N#CN1C[C@H]2C[C@H](N)C[C@H]2C1 [BB7] , its inhibition at 1.25 µM was 2.8

Lab note: measured inhibition at 1.25 µM of N#CN1C[C@H](N)[C@@H](O)C1 [BB13] was 1.1

Quick note, inhibition at 1.25 µM for N#CN1CCC2(CCNC2)C1 (stereo not shown) [BB14] landed at 0.344

# inhibition at 1.25 µM (compound: N#CN1CCC(N)CC1 [BB2] ) is 9

---

List of inhibition at 1.25 µM values.
TARGET_OR_TEST_SYSTEM: mUSP18 (Mus musculus, UniProt Q9WTV6)
Construct: (46-368); His-tag (N); made in house
METHOD: High-throughput screening, ISG15ct-RhoMP, single dose 1.25 µM
Format: biochemical, murine
TEST_CONTEXT: mUSP18 %inhibition; carboxylic acid (CA) with coupling reagents DIC/HOBT; read-out: %inh CA + DIC/HOBT
Field format: number, assumed %, no unit text.

> print(dat)
                                   compound                  target.or.test.system  unit.spec  experimental.value
1  O=C(O)C1CCCN1C(=O)c1ccncc1 (stereo not drawn)  mUSP18 (Mus musculus, UniProt Q9WTV6)          %               -3.12
2                CCC1(Cn2cc(C(=O)O)nn2)COC1  mUSP18 (Mus musculus, UniProt Q9WTV6)          %                2.71
3          Cc1cc(C)c(C(=O)O)c(OCC2CCCCC2)n1  mUSP18 (Mus musculus, UniProt Q9WTV6)          %                31.3

inhibition at 1.25 µM reading for Cc1nc(COc2ccc(C(=O)O)cc2)no1 : 6.3

Entry O=C(O)C(Cl)(Cl)Cl , inhibition at 1.25 µM reported as -12.6

O=C(O)C1(NS(=O)(=O)C=Cc2ccccc2)CCCC1 yielded inhibition at 1.25 µM of 6.5

O=C(O)c1occc1CN1CCOCC1 yielded inhibition at 1.25 µM of 4.49

# compound O=C(O)c1cnc(Cc2ccc(F)cc2)s1 ; its inhibition at 1.25 µM = -9.23

So for O=C(O)c1noc(Cc2ccccc2F)n1 , the logged inhibition at 1.25 µM turned out to be 7.15

The reported inhibition at 1.25 µM of the compound O=C(O)c1cccc(S(=O)(=O)NC2CC2)c1 was 3.07

Lookup result for O=C(O)C1CCN(C(=O)N2CCOCC2)CC1 ; measured inhibition at 1.25 µM: -0.57

Form field inhibition at 1.25 µM, entry COc1ccc(C(=O)O)cc1S(=O)(=O)N(C)CCc1cccnc1 : 4.83
